Experiment: WST-8 cytotoxicity assay
Assay type: cell-based, human
Settings: human, SH-SY5Y cells; SH-SY5Y, 12.5 µM, 48 h; read-out: Cell viability
READOUT TYPE: viability at 48 h, 12.5 µM (%)
# number only, unit % dropped from output

Answer with reported viability at 48 h, 12.5 µM of COc1cccc2c1CCCC2NC(=O)NCCc1ccccc1 (stereo not shown) 25.5

----------
Assay: WST-8 cytotoxicity assay
Assay type: cell-based, human
Conditions: human, SH-SY5Y cells; SH-SY5Y, 100 µM, 48 h; read-out: Cell viability
READOUT TYPE: viability at 48 h, 100 µM (%)
Quick note: give the figure in %, leave out the unit.

Tell me its viability at 48 h, 100 µM given COc1cccc2c1CCCC2NC(=O)NCCc1ccccc1 (stereo not shown) as the entry. 4.87

----------
READOUT TYPE: melting point

Guide cases for melting point, answers given:
INSERT INTO measurements (compound, test_value) VALUES
  ('COc1ccc(CCNC(=O)NC2CCCc3c(OC)cccc32)cc1OC (stereo not shown)', '168 to 170 °C'),
  ('COc1ccccc1CCNC(=O)NC1CCCc2c(OC)cccc21 (stereo not shown)', '174 to 176 °C'),
  ('COc1ccc(CCNC(=O)NC2CCCc3c(OC)cccc32)cc1 (stereo not shown)', '150 to 152 °C');

Dear colleague, please send me the reported melting point for COc1cccc(CCNC(=O)NC2CCCc3c(OC)cccc32)c1 (stereo not shown) when you can. 155 to 157 °C

----------
Test system: Staphylococcus aureus MRSA ATCC 43300
Catalogue of MIC values
Reply numerically in µM, unit not repeated.

A selection of reference data follows.
INSERT INTO measurements (compound, test_value) VALUES
  ('COc1ccc(CCNC(=O)NC2CCCc3c(OC)cccc32)cc1OC (stereo not shown)', 7.81),
  ('COc1cccc(CCNC(=O)NC2CCCc3c(OC)cccc32)c1 (stereo not shown)', 7.81),
  ('COc1ccc(CCNC(=O)NC2CCCc3c(OC)cccc32)cc1 (stereo not shown)', 3.9);

Okay, next one:
Give MIC for this entry on Staphylococcus aureus MRSA ATCC 43300: COc1ccccc1CCNC(=O)NC1CCCc2c(OC)cccc21 (stereo not shown) 15.6

----------
Assay: WST-8 cytotoxicity assay
Assay type: cell-based, human
Conditions: human, SH-SY5Y cells; SH-SY5Y, 25 µM, 48 h; read-out: Cell viability
READOUT TYPE: viability at 48 h, 25 µM (%)
# unit: % | format: bare number

Look up and report measured viability at 48 h, 25 µM for this entry: COc1cccc2c1CCCC2NC(=O)NCCc1ccccc1 (stereo not shown) 8.4

----------
Test system: SH-SY5Y cells
Assay: WST-8 cytotoxicity assay
Assay type: cell-based, human
Conditions: SH-SY5Y, 48 h, WST-8, n = 4; read-out: Cytotoxic activity IC50
READOUT TYPE: pIC50
pIC50 is a log-scale quantity: -log10 of the concentration expressed in molar.

Output measured pIC50 for this item: COc1ccccc1CCNC(=O)NC1CCCc2c(OC)cccc21 (stereo not shown) 5.05

----------
System: SH-SY5Y cells
Assay: WST-8 cytotoxicity assay
Assay type: cell-based, human
Details: IC50 PCS-201-012 fibroblasts / IC50 SH-SY5Y, n = 4
READOUT TYPE: SI value (SH-SY5Y cells)
# respond with the number and nothing more

INSERT INTO assay_data (molecule, test_value) VALUES
  ('COc1ccccc1CCNC(=O)NC1CCCc2c(OC)cccc21 (stereo not shown)', 25.26),
  ('COc1ccc(CCNC(=O)NC2CCCc3c(OC)cccc32)cc1OC (stereo not shown)', 39.08),
  ('COc1ccc(CCNC(=O)NC2CCCc3c(OC)cccc32)cc1 (stereo not shown)', 36.72);

Could you now look at the following molecule, please?
Assign SI value (SH-SY5Y cells) to the following record: COc1cccc(CCNC(=O)NC2CCCc3c(OC)cccc32)c1 (stereo not shown) 26.10

----------
Tested on: Pseudomonas aeruginosa ATCC 9027
Assay: Disc diffusion method
Type: cell-based
Conditions: ATCC9027, 250 µM, read-out: Disc diffusion test, inhibitory zone diameter
READOUT TYPE: zone of inhibition at 250 µM

Examples with answers:
INSERT INTO assay_data (compound, test_value) VALUES
  ('COc1ccc(CCNC(=O)NC2CCCc3c(OC)cccc32)cc1 (stereo not shown)', '9 mm'),
  ('COc1cccc(CCNC(=O)NC2CCCc3c(OC)cccc32)c1 (stereo not shown)', '7 mm'),
  ('COc1ccccc1CCNC(=O)NC1CCCc2c(OC)cccc21 (stereo not shown)', '5 mm');

Proceed to the following item.
Given the compound COc1ccc(CCNC(=O)NC2CCCc3c(OC)cccc32)cc1OC (stereo not shown) , write its reported zone of inhibition at 250 µM. 7 mm

----------
Test: WST-8 cytotoxicity assay
Type: cell-based
Details: human, PCS-201-012 healthy primary dermal fibroblast cells, PCS-201-012 healthy fibroblast cells, WST-8, n = 4, read-out: Cytotoxic activity IC50
READOUT TYPE: IC50 at 48 h (µM)
Provide the reading as a plain figure in µM.

INSERT INTO assay_data (compound, test_value) VALUES
  ('COc1ccc(CCNC(=O)NC2CCCc3c(OC)cccc32)cc1 (centres unmarked) [Compound 18]', 374);

Output IC50 at 48 h of COc1ccc(CCNC(=O)NC2CCCc3c(OC)cccc32)cc1OC (centres unmarked) [Compound 17] 380

Look up IC50 at 48 h of COc1cccc2c1CCCC2NC(=O)NCCc1ccccc1 (centres unmarked) [Compound 14] and report it. 7.9

Return IC50 at 48 h for the following compound: COc1ccccc1CCNC(=O)NC1CCCc2c(OC)cccc21 (centres unmarked) [Compound 15] 226

----------
Tested on: HeLa cells
Assay: WST-8 cytotoxicity assay
Format: cell-based, human
Details: Homo sapiens; HeLa cells, 48 h, WST-8, n = 4; read-out: Cytotoxic activity IC50
READOUT TYPE: IC50 (µM)
Number in µM, nothing else.

Kindly indicate its recorded IC50. Item: COc1ccc(CCNC(=O)NC2CCCc3c(OC)cccc32)cc1 (centres unmarked) 364

Give the measured IC50 for COc1ccc(CCNC(=O)NC2CCCc3c(OC)cccc32)cc1OC (centres unmarked) 251

----------
Test: WST-8 cytotoxicity assay
Format: cell-based, human
Details: human, SH-SY5Y cells; SH-SY5Y, 500 µM, 48 h; read-out: Cell viability
READOUT TYPE: viability at 48 h, 500 µM (%)
Value expressed in %; do not type the unit.

Supply viability at 48 h, 500 µM value. Item: COc1cccc2c1CCCC2NC(=O)NCCc1ccccc1 (stereo not shown) 1.67

----------
Assay: WST-8 cytotoxicity assay
Format: cell-based, human
Settings: human, SH-SY5Y cells; SH-SY5Y, 300 µM, 48 h; read-out: Cell viability
Method: The cells in culture were frequently sub-cultured, about 2–3 times weekly, until they reached a confluence of 80–90%. […] The cytotoxic potential of these ureas was assessed in vitro using the Cell Viability Detection Kit-8 (CVDK-8, Ecotech Biotechnology, Erzurum, Turkey), a method based on WST-8 quantification for human primary dermal fibroblasts and cervical cancer cells. […] The control group’s main purpose was to measure the absorbance of just the cells and the growth medium.
READOUT TYPE: viability at 48 h, 300 µM
Record the result as number plus unit.

Please give measured viability at 48 h, 300 µM of the following entry: COc1cccc2c1CCCC2NC(=O)NCCc1ccccc1 (stereo not shown) 3.77%

----------
Listing: zone of inhibition at 1000 µM of selected compounds
Tested on: Pseudomonas aeruginosa ATCC 9027
Test: Disc diffusion method
Format: cell-based
Conditions: ATCC9027, 1000 µM, read-out: Disc diffusion test, inhibitory zone diameter
The answer is to be given in mm; state only the numeric part.

INSERT INTO assay_data (compound, readout_type, units_of_measure, test_value) VALUES
  ('COc1ccccc1CCNC(=O)NC1CCCc2c(OC)cccc21 (stereo not shown)', 'zone of inhibition at 1000 µM', 'mm', 5),
  ('COc1ccc(CCNC(=O)NC2CCCc3c(OC)cccc32)cc1 (stereo not shown)', 'zone of inhibition at 1000 µM', 'mm', 15),
  ('COc1ccc(CCNC(=O)NC2CCCc3c(OC)cccc32)cc1OC (stereo not shown)', 'zone of inhibition at 1000 µM', 'mm', 10);

--- query ---
// output zone of inhibition at 1000 µM; input COc1cccc(CCNC(=O)NC2CCCc3c(OC)cccc32)c1 (stereo not shown) ; system Pseudomonas aeruginosa ATCC 9027 10

----------
Tested on: HeLa cells
Assay: WST-8 cytotoxicity assay
Assay type: cell-based, human
Settings: Homo sapiens; HeLa cells, 48 h, WST-8, n = 4; read-out: Cytotoxic activity IC50
READOUT TYPE: pIC50
Answer as the number alone; pIC50 is minus log10 of concentration in mol/L.

Example entries begin here.
INSERT INTO results (compound, readout_type, test_value) VALUES
  ('COc1ccccc1CCNC(=O)NC1CCCc2c(OC)cccc21 (stereo not drawn) [Compound 15]', 'pIC50', 3.85),
  ('COc1cccc2c1CCCC2NC(=O)NCCc1ccccc1 (stereo not drawn) [Compound 14]', 'pIC50', 5.59);

Please give measured pIC50 of the following entry: COc1cccc(CCNC(=O)NC2CCCc3c(OC)cccc32)c1 (stereo not drawn) [Compound 16] 4.49
